For each record, write down the corresponding Anti-CD28 Fab signal.
- system: T1, Anti-CD28 Fab (SEQ ID NOs: 202, 203)
- T1 construct: biotinylated and captured on neutravidin coated plates in the phage ELISA
- T1 sequence (VH, as listed by the source, chain 1 of 2): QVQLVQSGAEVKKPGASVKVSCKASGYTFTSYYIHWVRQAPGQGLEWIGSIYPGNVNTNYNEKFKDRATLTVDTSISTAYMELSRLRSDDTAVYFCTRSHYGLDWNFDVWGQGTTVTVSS
- T1 sequence (VL, as listed by the source, chain 2 of 2): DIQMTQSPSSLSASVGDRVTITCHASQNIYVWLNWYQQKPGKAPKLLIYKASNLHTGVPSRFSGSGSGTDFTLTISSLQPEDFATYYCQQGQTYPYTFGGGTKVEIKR
- test-summary: phage ELISA on captured biotinylated Fab;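 further: wells preblocked with or without CD28 antigen, then clonal phage supernatant added briefly, washed, and bound phage read out by ELISA using HRP-linked anti-M13 antibody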
Hey, just send me the number, nothing else.

Q: Reported Anti-CD28 Fab signal for YCQGHLPEYMSKCL [Phage-258] : what is it?
Ans: 2.01

Q: Now consider YCDGHLPEYIEKCL [Phage-159] and answer again.
Ans: 2.19

Q: Now consider YCDGHLEQYRAKCL [Phage-273] and answer again.
Ans: 1.96

Q: Now consider YCDGHLNEYMEKCL [Phage-298] and answer again.
Ans: 1.91

Q: Now consider YCDGHLEEYKQKCL [Phage-165] and answer again.
Ans: 2.18

Q: Now consider YCDGHLPEYLPKCL [Phage-153] and answer again.
Ans: 2.19

Q: Now consider YCMGHLPQYMQKCL [Phage-166] and answer again.
Ans: 2.18

Q: Now consider YCDGHSAEYMSKCL [Phage-204] and answer again.
Ans: 2.1

Q: Now consider YCDGHLWEYMDKCL [Phage-269] and answer again.
Ans: 1.97

Q: Now consider YCEGHAPEYMYKCL [Phage-235] and answer again.
Ans: 2.05

Q: Now consider YCEGHLPEYMSKCL [Phage-181] and answer again.
Ans: 2.15

Q: Now consider YCAGHTQEYMSKCL [Phage-201] and answer again.
Ans: 2.1

Q: Now consider YCEGHAPQYIAKCL [Phage-246] and answer again.
Ans: 2.03

Q: Now consider YCSGHLPEYMSKCL [Phage-245] and answer again.
Ans: 2.03

Q: Now consider YCDGHSPEHIRKCL [Phage-282] and answer again.
Ans: 1.94

Q: Now consider YCEGHLAEYMDKCL [Phage-272] and answer again.
Ans: 1.96

Q: Now consider YCDGHLIEYMEKCL [Phage-238] and answer again.
Ans: 2.04

Q: Now consider YCDGHSALYMWKCL [Phage-276] and answer again.
Ans: 1.96

Q: Now consider YCAGHLPEYFLKCL [Phage-156] and answer again.
Ans: 2.19

Data credit: patent US20260274955A1
